Origin of the recorded values: PubChem BioAssay

Assay: inhibitors of E-selectin induction by TNFa, primary screen, imaging, HUVEC, immunofluorescence, MLSMR starter and 10KST1 sets (AID 487);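 further: signal is fraction of cell area covered by stained E-selectin grains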
Details: HUVEC TNFalpha-induced E-selectin immunofluorescence imaging, at 2 µM; hits give high values
inhibition values by entry
VALUE_KIND: inhibition (%)

| MOLECULE | VALUE_KIND | RECORDED_NUMBER |
| --- | --- | --- |
| CCCOC(=O)CSC1=C(C#N)C(c2ccc3c(c2)OCO3)CC(=O)N1 (configuration not stated) | inhibition | -91.1 |
| COC(=O)c1cn(C(=O)c2ccc(Br)o2)c2ccccc12 | inhibition | -179 |
| CCC1CC2(C)NC(=O)c3c(sc4c3CC(C)(C)OC4)N2C1=O (configuration not stated) | inhibition | -48.8 |
| CCCCN(CCCC)C(=O)CSc1nnc2n(C)c(=O)c3c4c(sc3n12)CCCC4 | inhibition | -94.2 |
| CCCSc1nnc(NC(=O)Nc2ccc(F)cc2)s1 | inhibition | -24 |
| Cc1sc(NC(=O)CSc2nnc(COc3ccccc3)n2C)c(C#N)c1C | inhibition | -77.2 |
| COC(=O)CSc1nc(C)c(Oc2ccccc2)c(=O)[nH]1 | inhibition | -102 |
| CC(=O)c1ccc(NC(=O)C2CCN(S(=O)(=O)c3cccc4cccnc34)CC2)cc1 | inhibition | -11.2 |
| N#CCCN(C(=O)c1ccco1)c1ccccc1 | inhibition | -91 |
| CCC1CCCCN1C(=O)CSc1nnc(-c2ccco2)o1 (configuration not stated) | inhibition | -80.6 |
| COc1cc(OC)c(NC(=O)c2ccco2)cc1Cl | inhibition | -1.1 |
| CC1/C(=N/O)C(CN(C)C)C2CC1C2(C)C (configuration not stated) | inhibition | 13.2 |
